Source listed as PubChem BioAssay (NCI).

Tested on: 786-0 renal
Assay: NCI tumour cell line growth inhibition, 48 h
TGI values for the compounds below.
Numbers only; they are read as µM.

Worked cases, TGI given:
Mol Smiles | Endpoint Result
COc1cccc2c3cccc(OC)c3c3[nH]cnc3c12 | 2.98
C[C@]1(O)CC(=O)c2c(c(-c3ccc4cc5c(c(O)c4c3O)C(=O)C[C@@](C)(O)C5)c3cccc(O)c3c2O)C1 | 17.1
O=[N+]([O-])c1ccc(Oc2cccnc2)c([N+](=O)[O-])c1 | 26.5

Now turn to the next compound.
Request: Dear colleague, please send me the reported TGI for CC(C)N(CCCNc1c2ccccc2nc2cccc([N+](=O)[O-])c12)C(C)C when you can.
Result: 0.155

###

Tested on: CCRF-CEM leukemia
Assay: NCI tumour cell line growth inhibition, 48 h
Observed Property: TGI

Worked cases, TGI given:
Compound | Endpoint Result
NCCCCN | > 100 µM
CC(=O)N(/N=C\c1ccc([N+](=O)[O-])cc1)c1ccccc1 | > 100 µM
O=C(CC(=O)C(=O)CC(=O)OCc1ccccc1)OCc1ccccc1 | > 100 µM

Request: Specify TGI for Cn1c2c(c3c(=O)[nH]ncc31)CCc1ccccc1-2 , system CCRF-CEM leukemia.
Result: 60.7 µM

Request: Specify TGI for COC(OC)C1(c2ccccc2)Oc2ccccc2C1=O (stereo not given) , system CCRF-CEM leukemia.
Result: > 100 µM

###

Tested on: SK-OV-3 ovarian
Assay: NCI tumour cell line growth inhibition, 48 h
Observed Property: GI50

Compound | Endpoint Result
CCCCCCCCCCCCCCCCCC(=O)[O][Sn]([CH2]CCC)([CH2]CCC)[CH2]CCC | 0.143 µM

Request: Dear colleague, please send me the reported GI50 for C[CH2][Sn]1([CH2]C)[O]C2C(O)OC(CO)C(O)C2[O]1 (stereo unspecified) when you can.
Result: > 100 µM

Request: Dear colleague, please send me the reported GI50 for CN(C)c1cc2c(cc1Sc1nc3c(N)nccc3n1CCNCC(C)(C)C)OCO2 when you can.
Result: 0.394 µM

Request: Dear colleague, please send me the reported GI50 for Cc1oncc1C(=O)Nc1ccc(C(F)(F)F)cc1 when you can.
Result: > 100 µM

Request: Dear colleague, please send me the reported GI50 for Cc1ccccc1NC(=O)N/C(N)=N/c1nc2ccccc2s1 when you can.
Result: 0.416 µM

Request: Dear colleague, please send me the reported GI50 for COC(=O)C1=C(C(=O)Nc2cccnc2)C2OC1(C(Cc1ccccc1)Oc1ccccc1)C1OC21 (stereo unspecified) when you can.
Result: 18.3 µM

###

TGI values for the compounds below.
Test system: NCI/ADR-RES ovarian
Assay: NCI tumour cell line growth inhibition, 48 h
Numbers only; they are read as µM.

Worked cases, TGI given:
Compound | Assay Target | TGI (µM)
C/C(=N/NC(=S)N1CCCCCC1)c1ccccc1O | NCI/ADR-RES ovarian | 8.35
COC(=O)/C=C1/OC(c2ccc(Br)cc2)=C(Br)C1=O | NCI/ADR-RES ovarian | 32.9
O=C(c1ccc(F)c(F)c1Nc1ccc(I)cc1F)N1CC(O)([C@H]2CCCCN2)C1 | NCI/ADR-RES ovarian | 23
Clc1ccc(NCc2nnc(COc3ccc(OCc4nnc(CNc5ccc(Cl)cc5)o4)c(Cl)c3)o2)cc1 | NCI/ADR-RES ovarian | 68.5

Now turn to the next compound.
Request: Dear colleague, please send me the reported TGI for CCN(CC)CC(O)CNc1ccc(NCC(O)CCl)c2c1C(=O)c1ccccc1C2=O (stereo unspecified) when you can.
Result: 17.3

###

System: T-47D breast
Assay: NCI tumour cell line growth inhibition, 48 h; in the data active = GI50 below about 0.43 µM; inactive = the rest
Please reply with one of these outcomes: active, inactive

Examples from the recorded data:
Mol Smiles | Answer Label
CCS(=O)(=O)c1ccc(OC)c(Nc2ncc(-c3cccc(-c4ccccc4F)c3)o2)c1 | inactive
Cn1c(=O)c(Sc2ccccc2F)cc2cnc(NC3CCOCC3)nc21 | inactive
CCCCCCCCCCCCCCCCCC(=O)[O][Sn]([CH2]CCC)([CH2]CCC)[CH2]CCC | active
Clc1ccc(N/N=C/c2ccccn2)nc1 | active
O=Cc1ncc(-c2ccc(C(F)(F)F)cc2)c(NC2CCCCCC2)n1 | inactive
C[C@H](Nc1ccc(C#N)n(C)c1=O)c1cc2cc(Cl)ccc2[nH]c1=O | inactive

Request: Hello, I am checking results. What call was entered for C=C1C(=O)O[C@H]2[C@H]1CC/C(COC(=O)NCc1c[nH]c3ccc(OC)cc13)=C\CC[C@@]1(C)O[C@@H]21 ?
Result: inactive

Request: Hello, I am checking results. What call was entered for CCc1ccc(/C(C#N)=C/C=C/c2ccccc2)cc1 ?
Result: inactive

Request: Hello, I am checking results. What call was entered for Nc1ccccc1C#Cc1ccccc1C#Cc1ccccc1N ?
Result: inactive

Request: Hello, I am checking results. What call was entered for O=C(Nc1cccc(-n2cc(-c3ccncc3)c(-c3cc(O)cc(Cl)c3)n2)c1)Nc1ccc(Cl)c(Cl)c1 ?
Result: inactive

###

System: HCT-116 colon
Test: NCI tumour cell line growth inhibition, 48 h
Observed Property: TGI (µM)
Numbers only; they are read as µM.

Mol Smiles | Assay Target | Unit Spec | Endpoint Result
NCC(=O)Nc1ccc(-n2nc(C(F)(F)F)cc2-c2ccc3c(ccc4ccccc43)c2)cc1 | HCT-116 colon | µM | 2

Request: Dear colleague, please send me the reported TGI for Cc1cc2c(cc1C)C(=O)c1ncccc1C2=O when you can.
Result: 61.1

###

System: HCT-15 colon
Experiment: NCI tumour cell line growth inhibition, 48 h
Observed Property: GI50

Worked cases, GI50 given:
Compound | Endpoint Result
C[CH2][Sn]1([CH2]C)[O]C2C(O)OC(CO)C(O)C2[O]1 (configuration not stated) | 60.3 µM
O=C(c1ccc(F)c(F)c1Nc1ccc(I)cc1F)N1CC(O)([C@H]2CCCCN2)C1 | 4.81 µM
Cn1c(=O)c(Sc2ccccc2F)cc2cnc(NC3CCOCC3)nc21 | > 25 µM

Request: Dear colleague, please send me the reported GI50 for C=C1C(=O)O[C@H]2[C@H]1CC/C(COC(=O)NCc1c[nH]c3ccc(OC)cc13)=C\CC[C@@]1(C)O[C@@H]21 when you can.
Result: 1.34 µM

Request: Dear colleague, please send me the reported GI50 for COc1cc(-c2nn(C)nc2-c2cc3ccccc3s2)cc(OC)c1OC when you can.
Result: 0.0587 µM

Request: Dear colleague, please send me the reported GI50 for O=Cc1ncc(-c2ccc(C(F)(F)F)cc2)c(NC2CCCCCC2)n1 when you can.
Result: > 10 µM

Request: Dear colleague, please send me the reported GI50 for C[C@@]12CCC[C@@](C)(C(=O)O)C1CC[C@]13C=C(CO)[C@](O)(CCC12)C3 (some centres not stated) when you can.
Result: > 100 µM

Request: Dear colleague, please send me the reported GI50 for COc1cc(C2=Nc3c/c(=C\c4c(O)[nH]c5ccc(Cl)cc45)ccc3=N2)cc(OC)c1OC when you can.
Result: 3.27 µM

###

Tested on: U251 CNS
Please reply with one of these outcomes: active, inactive

Compound | Answer Label
O=C1OCC2=C1C(c1cccc([N+](=O)[O-])c1)c1cc3c(cc1N2CCO)CCC3 (stereo not drawn) | active
COc1cc2c3c(n(CCCN=[N+]=[N-])c(=O)c2cc1OC)-c1ccc(N)cc1C3=O | active
COc1ccc(C2=C(Br)C(=O)OC2)cc1Cl | inactive
Cn1c(=O)c(Sc2ccccc2F)cc2cnc(NC3CCOCC3)nc21 | inactive
COc1ccc(S(=O)(=O)Nc2cc(/C=C\c3cc(OC)c(OC)c(OC)c3)cc(OC)c2OC)cc1OC | inactive
C=C1C(=O)O[C@H]2[C@H]1CC/C(COC(=O)NCc1c[nH]c3ccc(OC)cc13)=C\CC[C@@]1(C)O[C@@H]21 | inactive
Oc1c(Cl)cc(C(c2cc(Cl)c(O)c(Cl)c2)C(c2cc(Cl)c(O)c(Cl)c2)c2cc(Cl)c(O)c(Cl)c2)cc1Cl | inactive

Now look at this one.
Request: Hello, I am checking results. What call was entered for COC(=O)C1=C(C(=O)Nc2cccnc2)C2OC1(C(Cc1ccccc1)Oc1ccccc1)C1OC21 (stereo not drawn) ?
Result: inactive

###

Test system: HCT-15 colon
Assay: NCI tumour cell line growth inhibition, 48 h
TGI values for the compounds below.

Compound | TGI
O=C(c1ccsc1)c1cc2c(s1)C(=O)c1ccsc1C2=O | 0.305 µM
CC(C)(C)c1ccc(O)c(Br)c1 | > 100 µM
C=CC[Se]C(=O)c1ccccc1OC(C)=O | 5.09 µM
Brc1ccc(-c2ccc(-c3ccc(-c4ccc(Br)s4)s3)s2)s1 | > 100 µM
Cc1ccc2c(=O)c(-c3nnsn3)c[nH]c2n1 | > 100 µM

Request: Dear colleague, please send me the reported TGI for CC1=C(C(=O)OCCc2ccc([N+](=O)[O-])cc2)C(c2ccccc2C(F)(F)F)C(C(=O)OC(C)C)=C(C)N1 (configuration not stated) when you can.
Result: > 100 µM

Request: Dear colleague, please send me the reported TGI for N#Cc1ccc(Nc2cnc3cc(N)ccc3n2)cc1 when you can.
Result: > 100 µM

Request: Dear colleague, please send me the reported TGI for CN(C)S(=O)(=O)n1ccnc1 when you can.
Result: > 100 µM

Request: Dear colleague, please send me the reported TGI for Cc1ccccc1NC(=O)N/C(N)=N/c1nc2ccccc2s1 when you can.
Result: > 100 µM

Request: Dear colleague, please send me the reported TGI for O=c1oc2c(ccc3occc32)c(N2CCCCC2)c1-c1ccccc1 when you can.
Result: > 100 µM

Request: Dear colleague, please send me the reported TGI for CSc1nc2nc(C)c(C)nc2c(=O)[nH]1 when you can.
Result: > 100 µM

Request: Dear colleague, please send me the reported TGI for CCC(C#N)N(Cc1ccc(CN(C(=O)c2ccccc2)C(C#N)CC)cc1)C(=O)c1ccccc1 (configuration not stated) when you can.
Result: > 100 µM
